tested on: KM12 colon; test: NCI tumour cell line growth inhibition, 48 h
endpoint.label: TGI

Below, each entry is followed by its recorded TGI result.
Problem: Need TGI of C[C@]12CC(c3ccccc3O1)C(C(=O)Nc1nc(C34CC5CC(CC(C5)C3)C4)cs1)C(=O)N2 (some centres undefined) , thanks.
Solution: > 100 µM

Problem: Need TGI of "C/C(=N\NC(=S)N1CCCCCC1)c1cccc2cccnc12" , thanks.
Solution: > 87.4 µM

Problem: Need TGI of "Nc1nc(Cl)c(Cl)c(NCC2(O)CCC2)n1" , thanks.
Solution: > 100 µM

Next item in the queue.
Problem: Need TGI of "C/C(=N\Nc1nc2ccccc2s1)c1cc2ccccc2cn1" , thanks.
Solution: 94.4 µM

----------
tested on: HOP-92 NSCLC; test: NCI tumour cell line growth inhibition, 48 h
Please provide measured TGI for the entries that follow.
Numbers only, in µM.

Below, each entry is followed by its recorded TGI result.
Problem: Need TGI of COc1cc2oc3c(c(=O)c2c(O)c1/C=C/C(C)C)C(C=C(C)C)Oc1cc(O)ccc1-3 (stereo not given) , thanks.
Solution: 29.3

Problem: Need TGI of Cc1ccc(C2(c3ccc(F)cc3)OC(=O)c3ccccc32)c(O)c1 (stereo not given) , thanks.
Solution: 34.9

Problem: Need TGI of "Cc1[nH]c2cc(F)ccc2c1-c1nc2c3cccnc3c3ncccc3c2[nH]1" , thanks.
Solution: 1.41

New cases:
Problem: Need TGI of "COc1ccc(CCN2CCC(CN(C)Cc3cnn(-c4ccccc4)c3)CC2)cc1" , thanks.
Solution: 19.3

----------
tested on: NCI-H226 lung; test: NCI tumour cell line growth inhibition, 48 h
endpoint.label: TGI

Below, each entry is followed by its recorded TGI result.
Problem: Need TGI of Brc1cccc(C2ON=C(c3ccccc3)N2C23CC4CC(CC(C4)C2)C3)c1 (stereo unspecified) , thanks.
Solution: > 10 µM

Problem: Need TGI of O=C1CSC(c2ccc(Cl)cc2Cl)N1c1ccc(Oc2ccc(Cl)cc2)c(Cl)c1 (stereo unspecified) , thanks.
Solution: > 100 µM

Problem: Need TGI of "O=C(O)c1c(Br)c(Br)c(Br)c(Br)c1C1c2ccc(O)cc2Oc2cc(O)ccc21" , thanks.
Solution: > 100 µM

Problem: Need TGI of COc1cc(C(C)O)c[n+](CCC2CNc3ccccc32)c1 (stereo unspecified) , thanks.
Solution: > 100 µM

Problem: Need TGI of "CC(=O)NC1=NC(=O)/C(=C/c2ccc(/C=C3/C(=O)N=C(NC(C)=O)N3C)cc2)N1C" , thanks.
Solution: > 100 µM

Next item in the queue.
Problem: Need TGI of "N/C1=C/C(=O)NC(=O)c2c(c3ccccc3oc2=O)C1" , thanks.
Solution: > 100 µM

----------
Please provide measured TGI for the entries that follow.
test system: K-562 leukemia; experiment: NCI tumour cell line growth inhibition, 48 h

Problem: Need TGI of "OCCN(CCO)c1cccc(N(CCO)CCO)n1" , thanks.
Solution: > 100 µM

Problem: Need TGI of COC(=O)C1(SC)C2CCC3C2CCC31 (stereo unspecified) , thanks.
Solution: > 100 µM

Problem: Need TGI of CC1OC(CC(=O)O)CC2=C1C(=O)c1c(O)cccc1C2=O (stereo unspecified) , thanks.
Solution: 0.36 µM

Problem: Need TGI of CC(=O)c1ccc(NC(=O)C(=O)C(C#N)CC(C)(C)C=O)cc1 (stereo unspecified) , thanks.
Solution: > 100 µM

Problem: Need TGI of "CC(C)(C)OC(=O)NCc1cccc(N=C=S)c1" , thanks.
Solution: > 88.2 µM

Next item in the queue.
Problem: Need TGI of "c1ccc2c(c1)cc1n2CCc2c-1[nH]c1ccccc21" , thanks.
Solution: > 10 µM

FYI, the data here is from PubChem BioAssay (NCI).
